Would you mind telling me the reported Bliss excess of each entry?
# Test system: NB14 (Neuroblastoma);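 note: after 72 h of two-drug dosing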
# Test Name: Bliss excess, mean over the matrix (fraction); higher = more synergy
I'd appreciate a reply containing only the number, no unit.

Tell me its Bliss excess given Cn1cnc2c(F)c(Nc3ccc(Br)cc3Cl)c(C(=O)NOCCO)cc21 [Selumetinib] + C=CCn1c(=O)c2cnc(Nc3ccc(N4CCN(C)CC4)cc3)nc2n1-c1cccc(C(C)(C)O)n1 [AZD1775] (first compound max 10 µM, partner max 1 µM) as the entry.
-0.0193

Tell me its Bliss excess given Cc1nc(Nc2ncc(C(=O)Nc3c(C)cccc3Cl)s2)cc(N2CCN(CCO)CC2)n1 [Dasatinib] + CC(=O)Nc1cccc(-n2c(=O)n(C3CC3)c(=O)c3c(Nc4ccc(I)cc4F)n(C)c(=O)c(C)c32)c1 [Trametinib] (first compound max 2 µM, 7x7, partner max 1 µM) as the entry.
-0.065

Tell me its Bliss excess given C=CCn1c(=O)c2cnc(Nc3ccc(N4CCN(C)CC4)cc3)nc2n1-c1cccc(C(C)(C)O)n1 [AZD1775] + C[C@@H]1COCCN1C2=NC(=NC(=C2)C3(CC3)[S@](=N)(=O)C)C4=C5C=CNC5=NC=C4 [AZD6738] (first compound max 1 µM, partner max 10 µM) as the entry.
0.0462

Tell me its Bliss excess given Cc1nc(-c2cn3c(n2)-c2ccc(-c4cnn(C(C)(C)C(N)=O)c4)cc2OCC3)n(C(C)C)n1 [Taselisib] + O=C(Nc1ccc2[nH]nc(-c3ccncc3)c2c1)[C@@H]1CCN(CC(=O)N2CCN(c3ccc(-c4ncccn4)cc3)CC2)C1 [SCH772984] (first compound max 10 µM, 7x7, partner max 5 µM) as the entry.
0.192
